# TGI per entry
- System: COLO 205 colon
- measurement description: NCI tumour cell line growth inhibition, 48 h
Report the figure in µM without appending any unit label.

{"columns": ["compound", "readout type", "measurement"],
 "data": [
  ["CCNCCNc1cc(-c2ccc(C#N)cc2)c(C#N)c2nc3ccccc3n12", "TGI", 4.16],
  ["Cc1ccc2oc(=O)c(-c3ccccc3)nc2c1", "TGI", 71.1],
  ["CC(=O)[CH-]C(=O)c1ccccc1.CC(=O)[CH-]C(=O)c1ccccc1.CC1(C)OCC(C2OC3OC(C)(C)OC3C2[O-])O1.CC[O-].[Ti+4] (stereo unspecified)", "TGI", 32.5],
  ["COc1ccc(C2c3cc4c(cc3OC(NCCO)C2C)OCO4)cc1 (stereo unspecified)", "TGI", 36.2]
]}

Continue with the next compound.
INPUT: What value of TGI has been reported for the following compound? "O=C1/C(=C/c2ccc([N+](=O)[O-])cc2)COc2ccc(O)cc21"
OUTPUT: 55.7

// data source = PubChem BioAssay (NCI)
